The reported numbers originate from patent US8969542B2.

What ICCG6138 SFC/10^6 cells Delta was measured for each of the following?
System: CD8+ spleen cells of HLA transgenic mice (HLA-A01/Kb, F1 HLA-A02/KbxBalb/c, HLA-A11/Kb, HLA-A24/Kb)
METHOD DESCRIPTION: Immunogenicity after HPV DNA construct immunization, direct ex vivo IFNγ ELISPOT
Type: in vivo, mouse
CONDITIONS USED: immunization with DNA construct ICCG 6138; HLA transgenic mice (HLA-A01/A02/A11/A24); CD8+ cells restimulated with WT peptide 10 μg/mL, IFNγ ELISPOT
Remember to put the unit after the number in your answer.

# lookup: ICCG6138 SFC/10^6 cells Delta of 146 (QAEPDTSNY; Human papillomavirus type 31) [compound 146]
23 SFC/10^6 cells

Find the recorded ICCG6138 SFC/10^6 cells Delta belonging to 153 (HYTNWKFIY; Human papilloma virus) [compound 153] and report it.
58 SFC/10^6 cells

So what's the measured ICCG6138 SFC/10^6 cells Delta for this one? 150 (TLQEIVLHL; Human papillomavirus type 45) [compound 150]
3 SFC/10^6 cells

Looking for the measured ICCG6138 SFC/10^6 cells Delta of 148 (FAFTDLTIV; Human papillomavirus type 31) [compound 148] , can you help?
1 SFC/10^6 cells

Which ICCG6138 SFC/10^6 cells Delta value belongs to 151 (RTEVYQFAFK; Human papillomavirus type 45) [compound 151] ?
1 SFC/10^6 cells

Fill in the blank: the reported ICCG6138 SFC/10^6 cells Delta of 147 (LQDVSIACVY; Human papillomavirus type 45) [compound 147] is ____.
6 SFC/10^6 cells

Given the substance 154 (FYSRIRELRY; Human papilloma virus) [compound 154] , what is its reported ICCG6138 SFC/10^6 cells Delta?
33 SFC/10^6 cells

Which measured ICCG6138 SFC/10^6 cells Delta value corresponds to 149 (YQFAFKDLCI; Human papillomavirus type 45) [compound 149] ?
1 SFC/10^6 cells

What value of ICCG6138 SFC/10^6 cells Delta has been reported for the following substance? 152 (SVYGTTLEK; Human papillomavirus type 31) [compound 152]
1150 SFC/10^6 cells

---

TARGET UNDER TEST: DRB1*0401 (DR4w4) (Homo sapiens, UniProt P01903+P01911, A100K/A169T/F76Y/I96L/K127E/L162R/M171V/N62H/P40V/Q125Y/R42H/S133A/S149N/S66Y/V115G/V209L/W38E)
Sequence (P01903 26-254 partner, other chains not shown): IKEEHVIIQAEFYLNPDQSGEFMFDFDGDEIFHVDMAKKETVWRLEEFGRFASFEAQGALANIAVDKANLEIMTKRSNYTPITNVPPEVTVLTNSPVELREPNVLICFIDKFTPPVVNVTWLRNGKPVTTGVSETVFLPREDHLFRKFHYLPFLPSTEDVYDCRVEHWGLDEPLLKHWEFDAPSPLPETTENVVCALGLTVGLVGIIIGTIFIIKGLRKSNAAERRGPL
METHOD DESCRIPTION: biochemical
Where no end group is shown, it is not given here.
PROPERTY LABEL: pIC50
# reply with the number alone; pIC50 is -log10 of concentration in mol/L

I'd like to know its pIC50. The sequence in question is WKHIRLECVLMYKAR [compound 108]
6.58

Query (sequence): WKHMRLECAIYYKAR [compound 91] ; field requested: pIC50
6.61

What value of pIC50 has been recorded for this entry: NGWFYVEAVIDRQTG [compound 106]
6.07

---

Tested on: CD8+ spleen cells of HLA transgenic mice (HLA-A01/Kb, F1 HLA-A02/KbxBalb/c, HLA-A11/Kb, HLA-A24/Kb)
METHOD DESCRIPTION: Immunogenicity after HPV DNA construct immunization, direct ex vivo IFNγ ELISPOT
Type: in vivo, mouse
CONDITIONS USED: immunization with DNA construct ICCG 6137; HLA transgenic mice; response ratio, WT peptide 10 μg/mL, IFNγ ELISPOT
Simple rule here: ICCG6137 SFC/10^6 cells Ratio less than 2 is True, otherwise False.

For this substance, is ICCG6137 SFC/10^6 cells Ratio lower than 2? 151 (RTEVYQFAFK; Human papillomavirus type 45) [compound 151]
True

Take the substance 152 (SVYGTTLEK; Human papillomavirus type 31) [compound 152] and say whether its ICCG6137 SFC/10^6 cells Ratio is less than 2.
False

Is it true that ICCG6137 SFC/10^6 cells Ratio reported for 153 (HYTNWKFIY; Human papilloma virus) [compound 153] is less than 2?
True

Strictly below 2: is that where ICCG6137 SFC/10^6 cells Ratio of 149 (YQFAFKDLCI; Human papillomavirus type 45) [compound 149] sits?
True

Find out if reported ICCG6137 SFC/10^6 cells Ratio for 148 (FAFTDLTIV; Human papillomavirus type 31) [compound 148] is less than 2
True
